molecular target: Estrogen receptor alpha (ERalpha) (Homo sapiens, UniProt P03372); assay: Displacement of [3H]E2 from human recombinant ERalpha assessed as receptor binding at 3 uM after 16 to 20 hrs by liquid scintillation counting method relative to control; conditions: probe [3H]E2, read-out: Activity
Sequence (P03372 whole entry): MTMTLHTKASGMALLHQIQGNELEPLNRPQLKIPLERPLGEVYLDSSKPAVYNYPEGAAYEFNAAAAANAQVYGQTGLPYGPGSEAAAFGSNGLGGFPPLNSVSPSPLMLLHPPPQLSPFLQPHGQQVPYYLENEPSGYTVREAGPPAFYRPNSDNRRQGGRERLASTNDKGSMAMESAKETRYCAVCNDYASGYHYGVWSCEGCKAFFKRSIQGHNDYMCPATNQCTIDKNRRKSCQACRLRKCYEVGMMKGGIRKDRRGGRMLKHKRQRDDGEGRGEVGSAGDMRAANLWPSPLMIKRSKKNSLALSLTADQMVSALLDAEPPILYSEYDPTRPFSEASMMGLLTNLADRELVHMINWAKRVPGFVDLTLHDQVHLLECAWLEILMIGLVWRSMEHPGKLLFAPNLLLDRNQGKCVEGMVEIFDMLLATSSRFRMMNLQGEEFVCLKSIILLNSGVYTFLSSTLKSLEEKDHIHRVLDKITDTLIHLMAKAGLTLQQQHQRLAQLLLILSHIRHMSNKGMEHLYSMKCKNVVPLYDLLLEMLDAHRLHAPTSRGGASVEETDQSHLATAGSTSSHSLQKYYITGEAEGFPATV
ASSAY METRIC: activity at 3 µM (%)

Known results for molecules:
COc1c(Cl)cc(-c2ccc(C(=O)c3cccc(O)c3)s2)cc1Cl = 8
COc1c(C)cc(-c2ccc(C(=O)c3c(F)ccc(O)c3F)s2)cc1C = 51
N#Cc1cc(-c2ccc(C(=O)c3c(F)ccc(O)c3F)s2)ccc1O = 44

1. COc1c(Cl)cc(-c2ccc(C(=O)c3c(F)ccc(O)c3F)s2)cc1Cl
2. O=C(c1ccc(-c2ccc(O)c(Cl)c2)s1)c1c(F)ccc(O)c1F
Enquiry: Please state the entry with greater activity at 3 µM among 1 and 2 . Refer to your chosen entry by its label in the reply.
Return: 2
(2: 73%, 1: 27%)

A. COc1ccc(-c2ccc(C(=O)c3c(F)ccc(O)c3F)s2)cc1S(=O)(=O)N1CCOCC1
B. Cc1cc(-c2ccc(C(=O)c3c(F)ccc(O)c3F)s2)cc(C)c1O
Enquiry: Please state the entry with greater activity at 3 µM among A and B . Refer to your chosen entry by its label in the reply.
Return: B
(B: 17%, A: 0%)

* * *

test system: Plasma; assay: Plasma concentration in Sprague-Dawley rat at 150 umol/kg, sc qd for 4 consecutive days measured on day 8 post dose by HPLC-MS analysis; assay type: ADME, organism-based; conditions: in vivo
ASSAY METRIC: concentration (nM)
Report the value in nM with no unit label.

Enquiry: Entry "COc1c(Cl)cc(-c2ccc(C(=O)c3c(F)ccc(O)c3F)s2)cc1Cl" , system Plasma: what concentration was measured?
Return: 72

* * *

biological target: Estrogen receptor beta (ERbeta) (Homo sapiens); experiment: Displacement of [3H]E2 from human recombinant ERbeta assessed as receptor binding at 10 uM after 16 to 20 hrs by liquid scintillation counting method relative to control; details: probe [3H]E2, read-out: Activity
Sequence (Q92731 whole entry): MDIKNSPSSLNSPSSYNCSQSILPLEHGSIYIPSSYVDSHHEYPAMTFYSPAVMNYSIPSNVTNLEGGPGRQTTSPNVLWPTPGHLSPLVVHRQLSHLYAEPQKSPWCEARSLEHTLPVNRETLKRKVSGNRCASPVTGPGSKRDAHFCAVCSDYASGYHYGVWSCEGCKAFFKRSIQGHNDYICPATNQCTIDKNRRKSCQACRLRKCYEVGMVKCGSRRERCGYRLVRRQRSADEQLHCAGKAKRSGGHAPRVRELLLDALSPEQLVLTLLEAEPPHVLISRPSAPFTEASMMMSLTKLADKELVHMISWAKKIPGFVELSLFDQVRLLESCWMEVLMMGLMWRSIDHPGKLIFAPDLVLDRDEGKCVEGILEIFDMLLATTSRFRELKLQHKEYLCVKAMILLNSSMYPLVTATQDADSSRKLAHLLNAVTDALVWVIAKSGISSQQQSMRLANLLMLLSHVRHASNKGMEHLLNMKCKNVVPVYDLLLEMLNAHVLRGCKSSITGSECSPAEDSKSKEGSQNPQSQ
ASSAY METRIC: activity at 10 µM (%)

COc1c(C)cc(-c2ccc(C(=O)c3c(F)ccc(O)c3F)s2)cc1C = 69
COc1ccc(-c2ccc(C(=O)c3c(F)ccc(O)c3F)s2)cc1S(=O)(=O)N1CCOCC1 = 4
COc1c(Cl)cc(-c2ccc(C(=O)c3cccc(O)c3)s2)cc1Cl = 0
N#Cc1cc(-c2ccc(C(=O)c3c(F)ccc(O)c3F)s2)ccc1O = 6
O=C(c1ccc(-c2cc(Cl)c(O)c(Cl)c2)s1)c1c(F)ccc(O)c1F = 11

1. O=C(c1ccc(-c2ccc(O)c(Cl)c2)s1)c1c(F)ccc(O)c1F
2. COc1c(Cl)cc(-c2ccc(C(=O)c3c(F)ccc(O)c3F)s2)cc1Cl
3. Cc1cc(-c2ccc(C(=O)c3c(F)ccc(O)c3F)s2)cc(C)c1O
Enquiry: List these items ordered by activity at 10 µM, big to small. Note for the reader: the ranking is given by listing the labels in the order requested.
Return: 1, 3, 2
(1: 55%, 3: 22%, 2: 8%)

* * *

molecular target: CYP2D6 (Homo sapiens, UniProt P10635); experiment: Inhibition of recombinant human CYP2D6 expressed in baculovirus infected insect cell microsomes at 1 uM relative to control; type: ADME
Sequence (P10635 whole entry): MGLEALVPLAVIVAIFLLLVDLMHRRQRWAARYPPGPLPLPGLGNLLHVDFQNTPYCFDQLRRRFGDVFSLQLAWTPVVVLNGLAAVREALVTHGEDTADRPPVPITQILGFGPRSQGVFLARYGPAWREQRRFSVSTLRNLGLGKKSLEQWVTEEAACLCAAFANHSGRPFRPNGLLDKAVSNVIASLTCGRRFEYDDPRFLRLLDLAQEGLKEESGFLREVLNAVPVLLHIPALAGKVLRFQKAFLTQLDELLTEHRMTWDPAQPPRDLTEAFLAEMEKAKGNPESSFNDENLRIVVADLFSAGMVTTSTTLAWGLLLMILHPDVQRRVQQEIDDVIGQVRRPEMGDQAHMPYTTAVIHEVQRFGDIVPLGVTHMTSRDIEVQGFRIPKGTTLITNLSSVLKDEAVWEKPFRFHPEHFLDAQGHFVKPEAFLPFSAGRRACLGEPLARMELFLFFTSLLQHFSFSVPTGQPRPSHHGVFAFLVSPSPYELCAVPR
ASSAY METRIC: inhibition at 1 µM (%)
Report the value in % with no unit label.

Enquiry: Please report the recorded inhibition at 1 µM for "COc1c(Cl)cc(-c2ccc(C(=O)c3c(F)ccc(O)c3F)s2)cc1Cl" .
Return: 0

Data origin, for the record: ChEMBL document CHEMBL3994586
